Hello, the source for this data is ChEMBL document CHEMBL1811879, in case you need it.

- study.target: UniProt Q16348
- Sequence (Q16348 whole entry): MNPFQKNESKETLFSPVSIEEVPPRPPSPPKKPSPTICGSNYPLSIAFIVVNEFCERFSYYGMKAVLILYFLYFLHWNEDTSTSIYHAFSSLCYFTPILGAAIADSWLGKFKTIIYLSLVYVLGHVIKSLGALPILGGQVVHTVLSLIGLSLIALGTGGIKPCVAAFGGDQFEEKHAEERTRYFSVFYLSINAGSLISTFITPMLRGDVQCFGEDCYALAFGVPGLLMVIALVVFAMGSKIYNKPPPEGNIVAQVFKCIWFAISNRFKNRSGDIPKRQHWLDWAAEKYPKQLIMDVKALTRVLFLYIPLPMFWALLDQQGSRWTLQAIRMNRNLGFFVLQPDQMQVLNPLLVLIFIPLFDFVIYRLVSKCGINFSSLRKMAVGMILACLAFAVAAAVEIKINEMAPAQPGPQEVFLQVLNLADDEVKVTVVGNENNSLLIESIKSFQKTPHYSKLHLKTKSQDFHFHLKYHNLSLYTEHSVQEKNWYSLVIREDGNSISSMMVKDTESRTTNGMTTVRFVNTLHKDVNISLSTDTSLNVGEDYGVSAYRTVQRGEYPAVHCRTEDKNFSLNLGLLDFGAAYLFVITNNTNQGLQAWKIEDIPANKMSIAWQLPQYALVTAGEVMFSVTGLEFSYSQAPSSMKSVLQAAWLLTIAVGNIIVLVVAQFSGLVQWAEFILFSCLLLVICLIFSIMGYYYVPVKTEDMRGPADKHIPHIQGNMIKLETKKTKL
- test: Binding affinity to human PepT2 in SKTP cells
Where a SMILES comes first, the peptide text is derived from it. [ ]: non-standard residue; d: D form. Nle = CCCC[C@H](N)C(=O)O
endpoint.label: Ki (µM)
Numeric only. Scale: µM

Q: For the molecule shown here, C[C@H](NC(=O)[C@@H](N)Cc1c[nH]c2ccccc12)C(=O)O (H-Trp-Ala-OH) , give the reported Ki.
Ans: 4

Q: For the molecule shown here, CO/N=C(\C(=O)N[C@@H]1C(=O)N2C(C(=O)O)=C(COC(N)=O)CS[C@H]12)c1ccco1 , give the reported Ki.
Ans: 12600

Q: For the molecule shown here, NCCCC[C@H](NC(=O)[C@H](Cc1ccccc1)NC(=O)[C@@H]1CCCN1)C(=O)O (H-Pro-Phe-Lys-OH) , give the reported Ki.
Ans: 900

Q: For the molecule shown here, C[C@H](N)C(=O)N[C@@H](C)C(=O)N[C@@H](CC(=O)O)C(=O)O (H-Ala-Ala-Asp-OH) , give the reported Ki.
Ans: 160

Q: For the molecule shown here, CC[C@H](C)[C@H](N)C(=O)N[C@H](C(=O)N[C@@H](Cc1ccc(O)cc1)C(=O)O)C(C)C (H-Ile-Val-Tyr-OH) , give the reported Ki.
Ans: 14

Q: For the molecule shown here, C[C@H](NC(=O)[C@@H](C)N)C(=O)O (H-[dA]-Ala-OH) , give the reported Ki.
Ans: 130

Q: For the molecule shown here, C[C@H](NC(=O)CN)C(=O)O (H-Gly-Ala-OH) , give the reported Ki.
Ans: 3.5

Q: For the molecule shown here, O=C(Cc1cccs1)N[C@@H]1C(=O)N2C(C(=O)[O-])=C(C[n+]3ccccc3)CS[C@H]12 , give the reported Ki.
Ans: 8500

Q: For the molecule shown here, N[C@@H](Cc1ccccc1)C(=O)N[C@@H](Cc1ccccc1)C(=O)O (H-Phe-Phe-OH) , give the reported Ki.
Ans: 37

Q: For the molecule shown here, CO/N=C(\C(=O)N[C@@H]1C(=O)N2C(C(=O)O)=C(COC(C)=O)CS[C@H]12)c1csc(N)n1 , give the reported Ki.
Ans: 20000

Q: For the molecule shown here, N[C@@H](Cc1c[nH]c2ccccc12)C(=O)NCC(=O)N[C@@H](Cc1ccc(O)cc1)C(=O)O , give the reported Ki.
Ans: 1.7

Q: For the molecule shown here, C[C@H](N)C(=O)N[C@H](C)C(=O)O (H-Ala-[dA]-OH) , give the reported Ki.
Ans: 270

Q: For the molecule shown here, N[C@@H](Cc1c[nH]c2ccccc12)C(=O)N[C@@H](Cc1c[nH]c2ccccc12)C(=O)O (H-Trp-Trp-OH) , give the reported Ki.
Ans: 0.8

Q: For the molecule shown here, C[C@H](N)C(=O)N1CCC[C@H]1C(=O)O (H-Ala-Pro-OH) , give the reported Ki.
Ans: 12

Q: For the molecule shown here, CO/N=C(\C(=O)N[C@@H]1C(=O)N2C(C(=O)O)=C(CSc3nc(C)c(CC(=O)O)s3)CS[C@H]12)c1csc(N)n1 , give the reported Ki.
Ans: 9000

Q: For the molecule shown here, O=C(O)CC[C@H](NC(=O)[C@@H]1CCCN1)C(=O)O (H-Pro-Glu-OH) , give the reported Ki.
Ans: 2600

Q: For the molecule shown here, N[C@@H](CS)C(=O)NCC(=O)O , give the reported Ki.
Ans: 29

Q: For the molecule shown here, Cc1onc(-c2ccccc2)c1C(=O)N[C@@H]1C(=O)N2[C@@H]1SC(C)(C)[C@@H]2C(=O)O , give the reported Ki.
Ans: 3300

Q: For the molecule shown here, CC(C)[C@H](N)C(=O)N[C@@H](Cc1ccc(O)cc1)C(=O)O (H-Val-Tyr-OH) , give the reported Ki.
Ans: 2.5

Q: For the molecule shown here, CC(=O)OCC1=C(C(=O)O)N2C(=O)[C@@H](NC(=O)CSc3ccncc3)[C@H]2SC1 [CEPHAPIRIN SODIUM] , give the reported Ki.
Ans: 11100

Q: For the molecule shown here, Cc1onc(-c2ccccc2Cl)c1C(=O)N[C@@H]1C(=O)N2[C@@H]1SC(C)(C)[C@@H]2C(=O)O , give the reported Ki.
Ans: 950

Q: For the molecule shown here, CC(C)C[C@H](N)C(=O)NCC(=O)NCC(=O)O (H-Leu-Gly-Gly-OH) , give the reported Ki.
Ans: 18

Q: For the molecule shown here, Cc1onc(-c2c(Cl)cccc2Cl)c1C(=O)N[C@@H]1C(=O)N2[C@@H]1SC(C)(C)[C@@H]2C(=O)O , give the reported Ki.
Ans: 420

Q: For the molecule shown here, C[C@H](N)C(=O)N[C@@H](C)C(=O)N[C@@H](C)C(=O)O , give the reported Ki.
Ans: 18

Q: For the molecule shown here, NCCCC[C@H](NC(=O)[C@H](Cc1cnc[nH]1)NC(=O)CN)C(=O)O (H-Gly-His-Lys-OH) , give the reported Ki.
Ans: 3100

Q: For the molecule shown here, N[C@@H](Cc1ccccc1)C(=O)NCC(=O)O (H-Phe-Gly-OH) , give the reported Ki.
Ans: 14

Q: For the molecule shown here, COCC1=C(C(=O)O)N2C(=O)[C@@H](NC(=O)/C(=N\OC)c3csc(N)n3)[C@H]2SC1 , give the reported Ki.
Ans: 31000

Q: For the molecule shown here, CC(C)C[C@H](N)C(=O)N1CCC[C@H]1C(=O)O (H-Leu-Pro-OH) , give the reported Ki.
Ans: 10

Q: For the molecule shown here, C[C@H](N)C(=O)NCC(=O)O (H-Ala-Gly-OH) , give the reported Ki.
Ans: 7

Q: For the molecule shown here, C[C@H](NC(=O)[C@@H](N)CO)C(=O)O (H-Ser-Ala-OH) , give the reported Ki.
Ans: 7

Q: For the molecule shown here, CO/N=C(\C(=O)N[C@@H]1C(=O)N2C(C(=O)[O-])=C(C[N+]3(C)CCCC3)CS[C@H]12)c1csc(N)n1 , give the reported Ki.
Ans: 11000

Q: For the molecule shown here, CCCC[C@H](NC(=O)[C@H](C)N)C(=O)O (H-Ala-[Nle]-OH) , give the reported Ki.
Ans: 31

Q: For the molecule shown here, CC(=O)N[C@@H](CCCCN)C(=O)N[C@@H](C)C(=O)O (Ac-Lys-Ala-OH) , give the reported Ki.
Ans: 16

Q: For the molecule shown here, CC1=C(C(=O)O)N2C(=O)[C@@H](NC(=O)[C@H](N)c3ccccc3)[C@H]2SC1 [CEPHALEXIN ANHYDROUS] , give the reported Ki.
Ans: 75
